Test system: Klebsiella pneumoniae
Assay: Antibacterial activity against Carbapenem-resistant Klebsiella pneumoniae FADD1-KP032 clinical isolates assessed as reduction in bacterial growth by broth microdilution method
Format: functional

COMPOUND STRUCTURE	RELATIONAL OPERATOR	MIC (µg/mL)
CC[C@H](C)CCCCC(=O)N[C@@H](CCN)C(=O)N[C@H](C(=O)N[C@@H](CCN)C(=O)N[C@H]1CCNC(=O)[C@H](Cc2ccccc2)NC(=O)[C@H](CCN)NC(=O)[C@H](CCN)NC(=O)[C@H](CC(C)C)NC(=O)[C@@H](Cc2ccccc2)NC(=O)[C@H](CCN)NC1=O)[C@@H](C)O	=	1
C/C=C1/NC(=O)[C@H](CCN)NC(=O)[C@H](CCN)NC(=O)[C@H](CC(C)C)NC(=O)[C@@H](Cc2ccccc2)NC(=O)[C@H](CCN)NC(=O)[C@@H](NC(=O)[C@H](CCN)NC(=O)[C@@H](NC(=O)[C@H](CCN)NC(=O)CCCC[C@@H](C)CC)[C@@H](C)O)CCNC1=O	=	8
CC[C@H](C)CCCCC(=O)N[C@@H](CCN)C(=O)N[C@H](C(=O)N[C@@H](CCN)C(=O)N[C@H]1CCNC(=O)[C@H](CS)NC(=O)[C@H](CCN)NC(=O)[C@H](CCN)NC(=O)[C@H](CC(C)C)NC(=O)[C@@H](Cc2ccccc2)NC(=O)[C@H](CCN)NC1=O)[C@@H](C)O	=	16
CC[C@H](C)CCCCC(=O)N[C@@H](CCN)C(=O)N[C@H](C(=O)N[C@@H](CCN)C(=O)N[C@H]1CCNC(=O)[C@H](CC(N)=O)NC(=O)[C@H](CCN)NC(=O)[C@H](CCN)NC(=O)[C@H](CC(C)C)NC(=O)[C@@H](Cc2ccccc2)NC(=O)[C@H](CCN)NC1=O)[C@@H](C)O	>	32

====

System: Pseudomonas aeruginosa
Assay: Antibacterial activity against polymyxin-susceptible Pseudomonas aeruginosa FADD1-PA025 clinical isolates assessed as reduction in bacterial growth by broth microdilution method
Assay type: functional
Bridge positions count the residues as written; N and C are the ends. Square brackets hold non-standard residues; d marks the D form. Peptide text beside a SMILES is read from it. * marks the point of attachment. X1 = CC[C@H](C)CCCCC(=O)*; Dab = NCC[C@H](N)C(=O)O

COMPOUND	TESTED TARGET	MIC
CC[C@H](C)CCCCC(=O)N[C@@H](CCN)C(=O)N[C@H](C(=O)N[C@@H](CCN)C(=O)N[C@H]1CCNC(=O)[C@H](CCN)NC(=O)[C@H](CCN)NC(=O)[C@H](CCN)NC(=O)[C@H](CC(C)C)NC(=O)[C@@H](Cc2ccccc2)NC(=O)[C@H](CCN)NC1=O)[C@@H](C)O	Pseudomonas aeruginosa	> 32 µg/mL
CC[C@H](C)CCCCC(=O)N[C@@H](CCN)C(=O)N[C@H](C(=O)N[C@@H](CCN)C(=O)N[C@H]1CCNC(=O)[C@H](CCCN)NC(=O)[C@H](CCN)NC(=O)[C@H](CCN)NC(=O)[C@H](CC(C)C)NC(=O)[C@@H](Cc2ccccc2)NC(=O)[C@H](CCN)NC1=O)[C@@H](C)O	Pseudomonas aeruginosa	> 32 µg/mL
CC[C@H](C)CCCCC(=O)N[C@@H](CCN)C(=O)N[C@H](C(=O)N[C@@H](CCN)C(=O)N[C@H]1CCNC(=O)[C@H](CS)NC(=O)[C@H](CCN)NC(=O)[C@H](CCN)NC(=O)[C@H](CC(C)C)NC(=O)[C@@H](Cc2ccccc2)NC(=O)[C@H](CCN)NC1=O)[C@@H](C)O	Pseudomonas aeruginosa	8 µg/mL
CC[C@H](C)CCCCC(=O)N[C@@H](CCN)C(=O)N[C@H](C(=O)N[C@@H](CCN)C(=O)N[C@H]1CCNC(=O)[C@H](CCO)NC(=O)[C@H](CCN)NC(=O)[C@H](CCN)NC(=O)[C@H](CC(C)C)NC(=O)[C@@H](Cc2ccccc2)NC(=O)[C@H](CCN)NC1=O)[C@@H](C)O	Pseudomonas aeruginosa	2 µg/mL
CC[C@H](C)CCCCC(=O)N[C@@H](CCN)C(=O)N[C@H](C(=O)N[C@@H](CCN)C(=O)N[C@H]1CCNC(=O)[C@H](CC(C)C)NC(=O)[C@H](CCN)NC(=O)[C@H](CCN)NC(=O)[C@H](CC(C)C)NC(=O)[C@@H](Cc2ccccc2)NC(=O)[C@H](CCN)NC1=O)[C@@H](C)O (X1-[Dab]T[Dab][Dab][Dab][dF]L[Dab][Dab]L; lactam 4-C)	Pseudomonas aeruginosa	2 µg/mL
CC[C@H](C)CCCCC(=O)N[C@@H](CCN)C(=O)N[C@H](C(=O)N[C@@H](CCN)C(=O)N[C@H]1CCNC(=O)[C@H](C(C)(C)O)NC(=O)[C@H](CCN)NC(=O)[C@H](CCN)NC(=O)[C@H](CC(C)C)NC(=O)[C@@H](Cc2ccccc2)NC(=O)[C@H](CCN)NC1=O)[C@@H](C)O	Pseudomonas aeruginosa	2 µg/mL
CC[C@H](C)CCCCC(=O)N[C@@H](CCN)C(=O)N[C@H](C(=O)N[C@@H](CCN)C(=O)N[C@H]1CCNC(=O)[C@H](C(C)C)NC(=O)[C@H](CCN)NC(=O)[C@H](CCN)NC(=O)[C@H](CC(C)C)NC(=O)[C@@H](Cc2ccccc2)NC(=O)[C@H](CCN)NC1=O)[C@@H](C)O	Pseudomonas aeruginosa	1 µg/mL

====

Test system: Pseudomonas aeruginosa
Experiment: Antibacterial activity against polymyxin-susceptible Pseudomonas aeruginosa FADD1-PA025 clinical isolates assessed as reduction in bacterial growth by broth microdilution method
Assay type: functional

COMPOUND STRUCTURE	MIC
CC[C@H](C)CCCCC(=O)N[C@@H](CCN)C(=O)N[C@H](C(=O)N[C@@H](CCN)C(=O)N[C@H]1CCNC(=O)[C@H](CCCCN)NC(=O)[C@H](CCN)NC(=O)[C@H](CCN)NC(=O)[C@H](CC(C)C)NC(=O)[C@@H](Cc2ccccc2)NC(=O)[C@H](CCN)NC1=O)[C@@H](C)O	> 32 µg/mL
CC[C@H](C)CCCCC(=O)N[C@@H](CCN)C(=O)N[C@H](C(=O)N[C@@H](CCN)C(=O)N[C@H]1CCNC(=O)[C@H](CC(=O)O)NC(=O)[C@H](CCN)NC(=O)[C@H](CCN)NC(=O)[C@H](CC(C)C)NC(=O)[C@@H](Cc2ccccc2)NC(=O)[C@H](CCN)NC1=O)[C@@H](C)O	> 32 µg/mL
CC[C@H](C)CCCCC(=O)N[C@@H](CCN)C(=O)N[C@H](C(=O)N[C@@H](CCN)C(=O)N[C@H]1CCNC(=O)[C@H](CCC(=O)O)NC(=O)[C@H](CCN)NC(=O)[C@H](CCN)NC(=O)[C@H](CC(C)C)NC(=O)[C@@H](Cc2ccccc2)NC(=O)[C@H](CCN)NC1=O)[C@@H](C)O	> 32 µg/mL

====

Test system: Pseudomonas aeruginosa
Assay: Antibacterial activity against polymyxin-susceptible Pseudomonas aeruginosa FADD1-PA038 clinical isolates assessed as reduction in bacterial growth by broth microdilution method
Type: functional
MEASUREMENT LABEL: MIC (µg/mL)

COMPOUND STRUCTURE	RESULT
CC[C@H](C)CCCCC(=O)N[C@@H](CCN)C(=O)N[C@H](C(=O)N[C@@H](CCN)C(=O)N[C@H]1CCNC(=O)[C@H](COC)NC(=O)[C@H](CCN)NC(=O)[C@H](CCN)NC(=O)[C@H](CC(C)C)NC(=O)[C@@H](Cc2ccccc2)NC(=O)[C@H](CCN)NC1=O)[C@@H](C)O	8
CC[C@H](C)CCCCC(=O)N[C@@H](CCN)C(=O)N[C@H](C(=O)N[C@@H](CCN)C(=O)N[C@H]1CCNC(=O)[C@H](CS)NC(=O)[C@H](CCN)NC(=O)[C@H](CCN)NC(=O)[C@H](CC(C)C)NC(=O)[C@@H](Cc2ccccc2)NC(=O)[C@H](CCN)NC1=O)[C@@H](C)O	8
CC[C@H](C)CCCCC(=O)N[C@@H](CCN)C(=O)N[C@H](C(=O)N[C@@H](CCN)C(=O)N[C@H]1CCNC(=O)[C@H](C)NC(=O)[C@H](CCN)NC(=O)[C@H](CCN)NC(=O)[C@H](CC(C)C)NC(=O)[C@@H](Cc2ccccc2)NC(=O)[C@H](CCN)NC1=O)[C@@H](C)O	8

The reported measurements were obtained from ChEMBL document CHEMBL5316337.
